Measured values drawn from patent US20240262910A1 for this set.

target: T1, human CD33, full length, on cells (human, UniProt P20138 18-364); test: flow cytometry, purified mAb, Set2 cells
T1 construct: NIH-3T3 cells stably overexpressing full-length human CD33, or AML lines U937 and Set2 with endogenous CD33; the cell line is named under assay; also called 3T3-huCD33; 3T3-CD33
T1 sequence (P20138 18-364): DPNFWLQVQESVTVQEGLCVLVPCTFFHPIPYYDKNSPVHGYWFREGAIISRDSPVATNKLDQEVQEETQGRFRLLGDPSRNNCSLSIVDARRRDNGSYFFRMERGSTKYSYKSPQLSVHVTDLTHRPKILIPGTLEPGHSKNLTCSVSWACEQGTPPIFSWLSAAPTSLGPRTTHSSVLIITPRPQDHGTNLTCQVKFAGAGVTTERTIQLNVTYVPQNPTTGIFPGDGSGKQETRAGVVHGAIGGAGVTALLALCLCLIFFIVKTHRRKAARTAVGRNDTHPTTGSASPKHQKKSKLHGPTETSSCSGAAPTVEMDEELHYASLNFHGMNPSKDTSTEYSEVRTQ
REPORTED_METRIC: pEC50
Remember the convention: pEC50 equals -log10 of concentration in molar.

Example entries and their recorded answers appear below.
BINDER: 4-P3 (antibody, V domains shown, AlivaMab mouse hybridoma antibody; also called 4-P3-A) VH: EVQLLESGGGLVQPGGSLRLSCAASGFTFSTYAMSWVRQAPGKGLEWVSAISGRGGSTYYTDSVKGRFTISRDNSKNTVSLQMNSLRAEDTAVYYCAGRGDYYYYYGMDVWGQGTTVTVSA VL: DIVMTQSPLSSPVTLGQPASISCRSSQSLVYSDGNTYLSWLQQRPGQPPRLLIYKISNRFSGVPDRFSGSGAGTDFTLKISRVEAEDVGVYYCMQSTQFPHTFGQGTKLEIK
pEC50: 8.70
//
BINDER: 3-P14 (hybridoma antibody) (antibody, V domains shown, AlivaMab mouse hybridoma antibody; also called 3-P14-A) VH: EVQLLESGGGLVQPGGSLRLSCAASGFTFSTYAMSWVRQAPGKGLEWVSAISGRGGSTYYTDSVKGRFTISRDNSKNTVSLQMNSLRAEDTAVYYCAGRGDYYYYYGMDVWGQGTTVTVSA VL: DIVMTQSPLSSPVTLGQPASFSCRSSQSLVYSDGNTYLSWLQQRPGQPPRLLIYKISNRFSGVPDRFSGSGAGTDFTLKISRVEAEDVGVYYCMQSTQFPHTFGQGTKLEIK
pEC50: 8.62

--- query ---
**Q:** Report pEC50 for 1-P23 (antibody, V domains shown, AlivaMab mouse hybridoma antibody; also called 1-P23-A) VH: QVQLVESGGGVVQPGRSLRLSCAASGFTFNSYGMHWVRQAPGKGLEWVAIISYDGSNKYYADSVKGRFTISRDNSKNTLYLQMNSLRAEDTAVYYCARDNYDSSGYNWYFDLWGRGTLVTVSS VL: SSELTQDPAVSVALGQTVRITCQGDSLRSYYASWYQQKPGQAPVLVIYGKNNRPSGIPDRFSGSSSGNTASLTITGAQAEDEADYYCNSRDSSGNLWVFGGGTKLTVL please.
**A:** 8.85
